Value source: PubChem BioAssay (NCI)

Test system: UACC-62 melanoma
Test: NCI tumour cell line growth inhibition, 48 h
measurement_type: TGI

Recorded results for 2 compounds are shown here.
[[record]]
compound = "CCCOC1OC(CS(=O)(=O)O)C(OC(C)=O)C(OC(C)=O)C1OC(C)=O (stereo unspecified)"
assay_result = "> 100 µM"

[[record]]
compound = "O=C1NC(=S)NC(=O)C1=Cc1cc2c(cc1[N+](=O)[O-])OCO2"
assay_result = "> 100 µM"


Batch lookup, TGI per entry.
1. Nc1ccccc1C#C/C=C\C#Cc1ccccc1C(F)(F)F
2. O=C(O)C(=Cc1ccnc2ccccc12)C(=O)O
3. O=C(NCCNCCO)N/N=C/c1ccccc1
4. CC(=O)Nc1nc(C)c(S(=O)(=O)NC(=O)N2c3ccccc3CCc3ccccc32)s1
5. Cc1cn(C2CC(SCCO)C(CO)O2)c(=O)[nH]c1=O (stereo unspecified)
6. O=C(O)c1ccc2c(c1)Cc1cc([N+](=O)[O-])ccc1-2

["3.04 µM", "> 100 µM", "> 100 µM", "> 100 µM", "> 100 µM", "> 100 µM"]

Batch lookup, TGI per entry.
1. COC(=O)C1CC(C(=O)OC)c2nc3cc(C)ccc3nc21 (stereo unspecified)
2. CC(=O)OCC1(CNc2nc(N)ncc2C#N)CC(CCc2ccccc2)C1 (stereo unspecified)

1: > 100 µM; 2: > 100 µM

Returns the measured TGI for the input compound. Input: "O=C(O)Cn1ncn(NC(=O)Cc2ccccc2)c1=S"
> 10 µM

---

System: CCRF-CEM leukemia
Experiment: NCI tumour cell line growth inhibition, 48 h
For each entry below, report its GI50 value.

[[record]]
compound = "NC(=O)c1cnc(N[C@@H]2CCCC[C@@H]2N)nc1Nc1cccc(-n2nccn2)c1"
measurement_type = "GI50"
assay_result = "5 µM"

[[record]]
compound = "O=Cc1c(-c2cc(O)ccc2O)nc2sccn12"
measurement_type = "GI50"
assay_result = "0.95 µM"

[[record]]
compound = "CCN(Cc1cccc(OC)c1)c1ccc(CO)c(Cl)c1"
measurement_type = "GI50"
assay_result = "24.8 µM"

[[record]]
compound = "C[C@@H]1C=C(CCCCCCCCCCC[C@H](O)[C@@H]2CCC(=O)O2)C(=O)O1"
measurement_type = "GI50"
assay_result = "17.6 µM"


Then this compound:
Returns the measured GI50 for the input compound. Input: "Cc1c(C#N)cccc1-c1cc(-c2cn(Cc3cccc(C(C)(C)O)n3)nn2)nc(N)n1"
16.3 µM

---

For each entry below, report its TGI value.
Tested on: SN12C renal
Experiment: NCI tumour cell line growth inhibition, 48 h

Recorded results for 3 molecules are shown here.
[[record]]
molecule = "CC(=O)Nc1nc(C)c(S(=O)(=O)NC(=O)N2c3ccccc3CCc3ccccc32)s1"
assay_result = "> 100 µM"

[[record]]
molecule = "CC[C@]1(O)CC2CN(CCc3c([nH]c4ccccc34)[C@@](C(=O)OC)(c3cc4c(cc3OC)N(C)[C@H]3[C@@](O)(C(=O)OC)[C@H](OC(C)=O)[C@]5(CC)C=CCN6CC[C@]43[C@@H]65)C2)C1 (some centres undefined)"
assay_result = "> 37.3 µM"

[[record]]
molecule = "COc1ccc(Nc2nc(NNC(=O)Cc3ccccc3)nc(NNC(=O)c3ccncc3)n2)cc1"
assay_result = "> 10 µM"


Returns the measured TGI for the input molecule. Input: "C[C@@H]1C=C(CCCCCCCCCCC[C@H](O)[C@@H]2CCC(=O)O2)C(=O)O1"
82.8 µM

---

System: RPMI-8226 leukemia
Experiment: NCI tumour cell line growth inhibition, 48 h; in the data active = GI50 below about 0.43 µM; inactive = the rest
Respond only with the outcome that fits, drawn from Yes for active, No for inactive

Check out these entries, answers already filled in.
[[record]]
molecule = "CC1=C(/C=C/C(C)=C\\C=C\\C(C)=C\\C(=O)Nc2ccc3c(c2)OCO3)C(C)(C)CCC1"
assigned_category = "No"

[[record]]
molecule = "C=C1C(=O)O[C@H]2[C@H]1CC/C(COC(=O)NCc1cc3ccccc3[nH]1)=C\\CC[C@@]1(C)O[C@@H]21"
assigned_category = "No"

[[record]]
molecule = "Cc1cn(C2CC(F)C(CO)O2)c(=O)[nH]c1=O (stereo not drawn)"
assigned_category = "No"

[[record]]
molecule = "CC[C@]1(O)CC2CN(CCc3c([nH]c4ccccc34)[C@@](C(=O)OC)(c3cc4c(cc3OC)N(C)[C@H]3[C@@](O)(C(=O)OC)[C@H](OC(C)=O)[C@]5(CC)C=CCN6CC[C@]43[C@@H]65)C2)C1 (stereo partly drawn)"
assigned_category = "Yes"

[[record]]
molecule = "N[C@@H](Cc1c[nH]c2ccccc12)C(=O)NC1CCN(C(=O)c2c[nH]c3ccccc23)CC1"
assigned_category = "No"


Recorded test outcome, item "CC(=O)OC[C@H]1O[C@@H](n2ccc(=O)[nH]c2=O)[C@H](OC(C)=O)[C@@H]1OC(C)=O"
No

Recorded test outcome, item "COc1ccc(-c2cc(-c3ccc(OC)c(OC)c3)nc(SCCCC(=O)NO)n2)cc1"
No

Recorded test outcome, item CCOP(=O)(OCC)C(NC(c1ccccc1)c1ccccc1)c1ccccc1 (stereo not drawn)
No

---

Test system: MALME-3M melanoma
Assay: NCI tumour cell line growth inhibition, 48 h
measurement_type: TGI (µM)
One number for each entry, in µM.

[[record]]
compound = "C=C1C(=O)O[C@H]2[C@H]1CC/C(COC(=O)NCc1cc3ccccc3[nH]1)=C\\CC[C@@]1(C)O[C@@H]21"
target_of_assay = "MALME-3M melanoma"
assay_result = 3.58

[[record]]
compound = "COC(C[C@H]1CCCC[C@]1(O)/C(=C\\CO[Si](C(C)C)(C(C)C)C(C)C)Sc1ccccc1)OC"
target_of_assay = "MALME-3M melanoma"
assay_result = 86.4

[[record]]
compound = "C1CC[N-]CC1.C1CC[N-]CC1.C1CC[N-]CC1.C1CC[N-]CC1.[Cl][Rh][Cl]"
target_of_assay = "MALME-3M melanoma"
assay_result = 43.4


Report TGI for "CCn1c(SCc2nnc(Nc3ccccc3)s2)nc2ccccc2c1=O" tested on MALME-3M melanoma.
14

---

For each entry below, report its TGI value.
System: SF-539 CNS
Test: NCI tumour cell line growth inhibition, 48 h

[[record]]
compound = "O=C1Sc2cc3ccccc3cc2C(=O)Sc2cc3ccccc3cc21"
assay_result = "> 100 µM"

[[record]]
compound = "Cc1cc(=O)[nH]c(NN2C(Cl)C(=O)C2c2ccco2)n1 (stereo unspecified)"
assay_result = "85.9 µM"

[[record]]
compound = "CCOC(=O)c1nc2ccccc2nc1Nc1ccc(F)cc1"
assay_result = "> 58.9 µM"

[[record]]
compound = "CCN1C2=NC(=O)N(C)C(=O)C2(Cl)C(C(SC)S(=O)(=O)c2ccc(C)cc2)c2ccccc21 (stereo unspecified)"
assay_result = "> 100 µM"

[[record]]
compound = "Cc1cc2nc3c(N)nn(CCN(C)C)c3nc2cc1C"
assay_result = "> 100 µM"

[[record]]
compound = "CSc1nc2c(c(=O)[nH]1)N=C1c3ccccc3C(=O)C1C(c1ccc(F)cc1)N2 (stereo unspecified)"
assay_result = "29.4 µM"

[[record]]
compound = "Cc1c(C#N)cccc1-c1cc(-c2cn(Cc3cccc(C(C)(C)O)n3)nn2)nc(N)n1"
assay_result = "> 100 µM"

[[record]]
compound = "[Cl][Bi]([O]c1ccccn1)[O]c1ccccn1"
assay_result = "> 100 µM"

[[record]]
compound = "CCCN(CCCCC(NC(C)=O)C(=O)NCc1ccccc1)C(=O)NCCCl (stereo unspecified)"
assay_result = "> 100 µM"

[[record]]
compound = "O=C1C=C[C@@]23CC1C(O)C[C@H]2C=Cc1ccccc13 (stereo partly specified)"
assay_result = "> 100 µM"


Then this compound:
Report TGI for "O=C(O)c1ccc2c(c1)Cc1cc([N+](=O)[O-])ccc1-2" tested on SF-539 CNS.
> 100 µM

---

System: RXF 393 renal
Assay: NCI tumour cell line growth inhibition, 48 h
measurement_type: TGI (µM)
Numbers only, in µM.

Recorded results for 3 compounds are shown here.
[[record]]
compound = "CCCCN(CCCC)C1=Nc2ccccc2-n2c(nnc2C(=O)OCC)C1"
measurement_type = "TGI"
assay_result = 77.4

[[record]]
compound = "CN(C)CCCn1c2c(c3cnccc3c1=O)C(=O)c1ccccc1-2"
measurement_type = "TGI"
assay_result = 2.05

[[record]]
compound = "CCCC[C@H]1C(=O)O[C@H](C)[C@H](NC(=O)c2cccc(NC=O)c2O)C(=O)O[C@@H](C)[C@@H]1OC(=O)CC(C)C"
measurement_type = "TGI"
assay_result = 24.6


Then this compound:
Returns the measured TGI for the input compound. Input: "CC(C)Oc1cc2c(cc1O)CC[C@@H]1[C@@H]2CC[C@]2(C)[C@@H](O)CC[C@@H]12"
17.2
